Below, each entry is listed alongside its reported protein stability index.
B1: CLCN6 (parent)
chain: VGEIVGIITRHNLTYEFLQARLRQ

variants of: B1; assay: protein stability index of a GFP-peptide fusion (GPS, HEK-293T) (PSI 1-6); higher = more stable; conditions: c terminus: a fixed tail appended;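 further: lentivirally expressed fusions sorted by FACS into six bins by GFP to DsRed ratio, PSI derived from sequencing read proportions per bin multiplied by bin number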
The reply should be a number, written without any unit.

The examples below pair each entry with its known result.
Ask: Which protein stability index is reported for this variant? VYEIVGIITRHNLTYEFLQARLRQ [G2Y]
Result: 1.98

Ask: Moving on to the next variant: VGEIVGIITRHKLTYEFLQARLRQ [N12K]
Result: 2.04

Ask: Moving on to the next variant: VGEIVGILTRHNLTYEFLQARLRQ [I8L]
Result: 2.03

More entries:
Ask: Which protein stability index is reported for this variant? VGEIVGHITRHNLTYEFLQARLRQ [I7H]
Result: 2.05

Value source: the supplement of paper PMC10567573
